# Test system: OE33
# Protocol description: Antiproliferative activity against human OE33 cells assessed as inhibition of cell growth measured after 72 hrs by Celltiter-glo luminescent cell viability assay
# Assay type: functional, cell-based
# Applied conditions: OE33, 72 h
Result type: IC50

>>> observed_measurement("O=C(Nc1ccc(Oc2ccnc(NC(=O)N3CC(O)C3)c2)c(F)c1)c1cn(-c2cccnc2)nn1")
"> 30 µM"

---

# Protocol description: Antiproliferative activity against human PBMC cells assessed as inhibition of cell growth measured after 72 hrs by Celltiter-glo luminescent cell viability assay
# Format: toxicity, cell-based
Result type: IC50 at 72 h

>>> observed_measurement("O=C(Nc1ccc(Oc2ccnc(NC(=O)N3CC(O)C3)c2)c(F)c1)c1cn(-c2cccnc2)nn1")
"> 30 µM"

---

# Tgt: Receptor-type tyrosine-protein kinase FLT3 (Homo sapiens, UniProt P36888, ITD)
# Sequence (P36888 whole entry, looked up, stated change not applied): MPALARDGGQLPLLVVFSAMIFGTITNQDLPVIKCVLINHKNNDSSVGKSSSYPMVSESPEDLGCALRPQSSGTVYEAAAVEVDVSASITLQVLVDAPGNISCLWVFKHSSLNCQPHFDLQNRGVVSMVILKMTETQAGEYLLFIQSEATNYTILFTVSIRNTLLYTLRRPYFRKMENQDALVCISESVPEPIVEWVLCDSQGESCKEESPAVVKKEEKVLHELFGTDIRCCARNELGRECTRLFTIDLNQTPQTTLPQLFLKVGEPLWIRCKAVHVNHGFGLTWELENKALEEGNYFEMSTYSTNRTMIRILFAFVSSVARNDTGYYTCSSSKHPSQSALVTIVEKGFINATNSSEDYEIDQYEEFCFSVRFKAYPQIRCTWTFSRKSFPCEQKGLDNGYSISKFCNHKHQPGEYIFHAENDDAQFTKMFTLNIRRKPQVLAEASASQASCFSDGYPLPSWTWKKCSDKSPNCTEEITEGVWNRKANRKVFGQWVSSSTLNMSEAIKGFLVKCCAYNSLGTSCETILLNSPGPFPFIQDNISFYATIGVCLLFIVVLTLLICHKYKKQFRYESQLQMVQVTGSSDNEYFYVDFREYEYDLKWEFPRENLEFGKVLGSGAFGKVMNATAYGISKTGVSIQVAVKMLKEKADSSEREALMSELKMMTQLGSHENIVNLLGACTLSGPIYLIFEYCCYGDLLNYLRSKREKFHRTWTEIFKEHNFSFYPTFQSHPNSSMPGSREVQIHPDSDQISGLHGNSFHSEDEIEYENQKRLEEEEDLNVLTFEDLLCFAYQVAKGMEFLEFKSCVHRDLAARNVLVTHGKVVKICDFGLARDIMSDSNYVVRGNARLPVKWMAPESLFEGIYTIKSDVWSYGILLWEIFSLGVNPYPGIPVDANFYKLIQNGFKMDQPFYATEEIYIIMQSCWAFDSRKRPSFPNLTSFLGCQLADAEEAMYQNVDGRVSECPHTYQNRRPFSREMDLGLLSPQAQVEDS
# Protocol description: Inhibition of FLT3 ITD mutant (unknown origin) preincubated for 10 mins followed by addition of peptide solution by caliper mobility shift assay
Result type: IC50 (nM)

>>> observed_measurement("O=C(Nc1ccc(Oc2ccnc(NC(=O)N3CC(O)C3)c2)c(F)c1)c1cn(-c2cccnc2)nn1")
69

---

# Tested on: BaF3
# Protocol description: Antiproliferative activity against mouse BaF3 cells harbouring TEL-VEGFR2 assessed as inhibition of cell growth measured after 72 hrs by Celltiter-glo luminescent cell viability assay
# Type: functional, cell-based
# Applied conditions: BaF3, 72 h
Field 'label' (enum: Satisfied / Not satisfied). Set to Satisfied when IC50 is strictly under 2000 nM; else Not satisfied.

>>> label("O=C(Nc1ccc(Oc2ccnc(NC(=O)N3CC(O)C3)c2)c(F)c1)c1cn(-c2ccc(N3CCOCC3)cc2)nn1")
"Not satisfied"
>>> label("O=C(Nc1ccc(Oc2ccnc(NC(=O)N3CC(O)C3)c2)c(F)c1)c1cn(-c2ccc(OC(F)(F)F)cc2)nn1")
"Not satisfied"
>>> label("O=C(Nc1ccc(Oc2ccnc(NC(=O)N3CC(O)C3)c2)c(F)c1)c1cn(-c2ccccc2)nn1")
"Satisfied"
>>> label("O=C(Nc1ccc(Oc2ccnc(NC(=O)N3CC(O)C3)c2)c(F)c1)c1cn(-c2ccc(F)cc2F)nn1")
"Satisfied"
>>> label("COC1CCN(C(=O)Nc2cc(Oc3ccc(NC(=O)c4cn(-c5cccnc5)nn4)cc3F)ccn2)CC1")
"Satisfied"
>>> label("O=C(Nc1ccc(Oc2ccnc(NC(=O)N3CC(O)C3)c2)c(F)c1)c1cn(-c2ccc(F)nc2)nn1")
"Not satisfied"
>>> label("O=C(Nc1ccc(Oc2ccnc(NC(=O)N3CC(O)C3)c2)c(F)c1)c1cn(-c2cccc(F)c2)nn1")
"Satisfied"
>>> label("Cc1ccc(-n2cc(C(=O)Nc3ccc(Oc4ccnc(NC(=O)N5CC(O)C5)c4)c(F)c3)nn2)cc1")
"Not satisfied"
>>> label("CN(C)C1CN(C(=O)Nc2cc(Oc3ccc(NC(=O)c4cn(-c5cccnc5)nn4)cc3F)ccn2)C1")
"Satisfied"
>>> label("O=C(Nc1cc(Oc2ccc(NC(=O)c3cn(-c4cccnc4)nn3)cc2F)ccn1)NC1CCOCC1")
"Not satisfied"
>>> label("O=C(Nc1ccc(Oc2ccnc(NC(=O)N3CC(O)C3)c2)c(F)c1)c1cn(-c2ccc(O)cc2)nn1")
"Not satisfied"
>>> label("CN1CCC(NC(=O)Nc2cc(Oc3ccc(NC(=O)c4cn(-c5cccnc5)nn4)cc3F)ccn2)CC1")
"Not satisfied"
>>> label("C#Cc1ccc(-n2cc(C(=O)Nc3ccc(Oc4ccnc(NC(=O)N5CC(O)C5)c4)c(F)c3)nn2)cc1")
"Not satisfied"
>>> label("O=C(Nc1ccc(Oc2ccnc(NC(=O)N3CCC(O)C3)c2)c(F)c1)c1cn(-c2cccnc2)nn1 (configuration not stated)")
"Satisfied"
>>> label("N#Cc1ccc(-n2cc(C(=O)Nc3ccc(Oc4ccnc(NC(=O)N5CC(O)C5)c4)c(F)c3)nn2)cc1")
"Not satisfied"
>>> label("O=C(Nc1ccc(Oc2ccnc(NC(=O)N3CC(O)C3)c2)c(F)c1)c1cn(-c2ccccn2)nn1")
"Satisfied"
